Catalogue of proteins with associated relative activity (initial increase in OD405)
assay.target: T1, Suc-AAPK-pNA
T1 chain: AAPK
test.parameters: scale: relative to the substrate with the highest activity
# answer = number (no unit)

Check out these entries, answers already filled in.
Value of measured relative activity (initial increase in OD405) for the entry Lysyl endopeptidase from Achromobacter lyticus (protein) GVSGSCNIDVVCPEGDGRRDIIRAVGAYSKSGTLACTGSLVNNTANDRKMYFLTAHHCGMGTASTAASIVVYWNYQNSTCRAPNTPASGANGDGSMSQTQSGSTVKATYATSDFTLLELNNAANPAFNLFWAGWDRRDQNYPGAIAIHHPNVAEKRISNSTSPTSFVAWGGGAGTTHLNVQWQPSGGVTEPGSSGSPIYSPEKRVLGQLHGGPSSCSATGTNRSDQYGRVFTSWTGGGAAASRLSDWLDPASTGAQFIDGLDSGGGTP : 1

Value of measured relative activity (initial increase in OD405) for the entry Serine protease bppB from Bacillus pumilus JA16 (protein) VVIGDDGRTKVTNTRVAPYNSIAYITFGGSSCTGTLIAPNKILTNGHCVYNTATRSYSAKGSVYPGMNDSTAVNGSANMTEFYVPSGYINTGASQYDFAVIKTDTNIGNTVGYRSIRQVTNLTGTTIKISGYPGDKMRSTGKVSQWEMSGPVTREDTNLAYYTIDTFSGNSGSAMLDQNQQIVGVHNAGYSNGTINGGPKATAAFVEFINYAKAQ : 0.0003

Value of measured relative activity (initial increase in OD405) for the entry Thermostable alkaline protease BH0855 from Bacillus halodurans (protein) QTVPWGISFINTQQAHNRGIFGNGARVAVLDTGIASHPDLRIAGGASFISSEPSYHDNNGHGTHVAGTIAALNNSIGVLGVAPSADLYAVKVLDRNGSGSLASVAQGIEWAINNNMHIINMSLGSTSGSSTLELAVNRANNAGILLVGAAGNTGRQGVNYPARYSGVMAVAAVDQNGQRASFSTYGPEIEISAPGVNVNSTYTGNRYVSLSGTSMATPHVAGVAALVKSRYPSYTNNQIRQRINQTATYLGSPSLYGNGLVHAGRATQ : 0.0038

Next protein, relative activity (initial increase in OD405) to be filled in.
Value of measured relative activity (initial increase in OD405) for the entry Subtilisin Carlsberg from Bacillus licheniformis (protein) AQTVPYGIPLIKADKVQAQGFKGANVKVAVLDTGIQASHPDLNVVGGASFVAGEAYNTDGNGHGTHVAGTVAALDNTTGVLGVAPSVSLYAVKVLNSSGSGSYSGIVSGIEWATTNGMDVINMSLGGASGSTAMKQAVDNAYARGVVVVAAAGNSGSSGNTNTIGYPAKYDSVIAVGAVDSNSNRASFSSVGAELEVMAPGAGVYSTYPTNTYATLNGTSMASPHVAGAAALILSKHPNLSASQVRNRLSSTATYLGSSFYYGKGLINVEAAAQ : 0.0155
